src = ChEMBL document CHEMBL6109116

- assayedSystem: Kappa-type opioid receptor (Cavia porcellus, UniProt P41144)
- Sequence (P41144 whole entry): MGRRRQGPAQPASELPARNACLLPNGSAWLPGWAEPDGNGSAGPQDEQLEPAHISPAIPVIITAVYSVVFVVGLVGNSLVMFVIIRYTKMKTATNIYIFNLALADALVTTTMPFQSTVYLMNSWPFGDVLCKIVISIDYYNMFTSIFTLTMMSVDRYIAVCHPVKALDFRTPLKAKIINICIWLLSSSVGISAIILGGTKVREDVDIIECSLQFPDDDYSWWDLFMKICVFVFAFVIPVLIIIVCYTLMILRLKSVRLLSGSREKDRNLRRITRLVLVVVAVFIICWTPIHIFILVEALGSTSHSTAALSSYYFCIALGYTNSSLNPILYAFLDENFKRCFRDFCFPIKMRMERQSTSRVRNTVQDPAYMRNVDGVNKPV
Assign labels as follows, please: 1 for Ki below 50 nM; 0 for Ki equal to or exceeding 50 nM.

Please check: Ki for CC(C)C[C@H]1CN2C(=CC3=NC[C@@H](C(C)C)N3C[C@H]2Cc2ccc(O)cc2)N1CCc1ccccc1 , strictly under 50 nM or not?
1

// repeat for CC(C)C[C@H]1CN=C2C=C3N(CCN4CCOCC4)[C@@H](Cc4ccc(O)cc4)CN3[C@@H](Cc3ccc(O)cc3)CN21 and report
1

// repeat for CN1CCN(CCN2C(=N)N([C@@H](CCCNC(=N)N)CN3C(=N)NC[C@@H]3Cc3ccc(O)cc3)C[C@@H]2Cc2ccc(O)cc2)CC1 and report
0

// repeat for CC(C)C[C@H]1CN([C@@H](Cc2ccc(O)cc2)CN2C(=N)NC[C@@H]2CCCNC(=N)N)C(=N)N1CCNS(=O)(=O)c1ccc(C(C)(C)C)cc1 and report
1

// repeat for CC(C)C[C@H]1CN2C(=CC3=NC[C@H](CCN(C)C)N3C[C@@H]2Cc2ccc(O)cc2)N1CCc1ccccc1 and report
1

// repeat for CC(C)[C@H]1CN=C2C=C3N4C[C@H](O)C[C@H]4CN3[C@@H](Cc3ccc(O)cc3)CN21 and report
1
